# Lookup of reported IC50 keyed by entry
Target: integrin α4β7 (Homo sapiens, UniProt P13612+P26010)
Assay: Fluorescence polarization (FP) assay for α4β7 binding (Example 5)
Conditions: competition with fluorescein-labeled peptide, 6.5 nM integrin α4β7, 2 mM manganese chloride; Table 4 comparative compounds

Recorded results for 3 compounds are shown here.
| compound | measurementKind | reportedValue |
| --- | --- | --- |
| Cc1ccccc1-c1cc([C@H](CC(=O)O)NC(=O)C(CC(C)C)n2ccccc2=O)ccc1C#N (stereo partly shown) | IC50 | ≤ 10 nM |
| Cc1cccc(C)c1-c1cccc([C@H](CC(=O)O)NC(=O)[C@H](CC(C)C)n2cc(CN3CC(F)C3)ccc2=O)c1 [drawing 577] | IC50 | ≤ 10 nM |
| Cc1ccccc1-c1cccc([C@H](CC(=O)O)NC(=O)[C@H](CC(C)C)n2ccncc2=O)c1 | IC50 | 10 to 500 nM |

Kindly consider the entry below.
Prompt line: Specify measured IC50 for `Cc1ccccc1-c1cc([C@H](CC(=O)O)NC(=O)[C@H](CC(C)C)n2ccccc2=O)ccc1C` .
Response line: 10 to 500 nM

* * *

# Lookup of reported pIC50 keyed by entry
Target: α4β7 (Homo sapiens, UniProt P13612+P26010)
Construct: endogenous in cells; host or cells: RPMI 8866 cells
Sequence (P13612 34-1032): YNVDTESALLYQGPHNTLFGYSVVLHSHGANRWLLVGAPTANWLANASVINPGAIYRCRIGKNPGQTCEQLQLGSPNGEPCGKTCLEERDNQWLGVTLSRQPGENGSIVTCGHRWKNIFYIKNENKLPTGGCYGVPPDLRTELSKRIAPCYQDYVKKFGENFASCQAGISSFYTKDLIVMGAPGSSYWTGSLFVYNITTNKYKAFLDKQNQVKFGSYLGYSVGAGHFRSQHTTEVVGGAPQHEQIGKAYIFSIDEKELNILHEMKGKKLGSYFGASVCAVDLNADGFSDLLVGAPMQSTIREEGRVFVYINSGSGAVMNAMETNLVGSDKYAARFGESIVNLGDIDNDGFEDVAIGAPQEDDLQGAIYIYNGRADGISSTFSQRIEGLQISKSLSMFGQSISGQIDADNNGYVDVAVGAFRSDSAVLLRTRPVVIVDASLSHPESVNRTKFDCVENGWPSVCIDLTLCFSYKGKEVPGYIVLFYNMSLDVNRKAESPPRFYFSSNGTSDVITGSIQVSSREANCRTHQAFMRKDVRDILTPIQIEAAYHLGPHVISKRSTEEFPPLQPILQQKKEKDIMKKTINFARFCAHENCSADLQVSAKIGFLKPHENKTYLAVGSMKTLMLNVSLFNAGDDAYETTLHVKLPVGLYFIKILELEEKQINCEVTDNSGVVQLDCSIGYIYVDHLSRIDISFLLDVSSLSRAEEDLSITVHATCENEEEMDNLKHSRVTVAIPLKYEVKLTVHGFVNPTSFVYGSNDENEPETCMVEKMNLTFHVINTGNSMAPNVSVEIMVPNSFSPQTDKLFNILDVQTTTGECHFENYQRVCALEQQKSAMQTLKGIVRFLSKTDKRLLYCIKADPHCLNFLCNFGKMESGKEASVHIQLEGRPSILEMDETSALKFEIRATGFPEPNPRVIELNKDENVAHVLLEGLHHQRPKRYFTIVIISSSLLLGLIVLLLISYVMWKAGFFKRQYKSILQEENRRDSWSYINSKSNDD
Sequence (P26010 20-798): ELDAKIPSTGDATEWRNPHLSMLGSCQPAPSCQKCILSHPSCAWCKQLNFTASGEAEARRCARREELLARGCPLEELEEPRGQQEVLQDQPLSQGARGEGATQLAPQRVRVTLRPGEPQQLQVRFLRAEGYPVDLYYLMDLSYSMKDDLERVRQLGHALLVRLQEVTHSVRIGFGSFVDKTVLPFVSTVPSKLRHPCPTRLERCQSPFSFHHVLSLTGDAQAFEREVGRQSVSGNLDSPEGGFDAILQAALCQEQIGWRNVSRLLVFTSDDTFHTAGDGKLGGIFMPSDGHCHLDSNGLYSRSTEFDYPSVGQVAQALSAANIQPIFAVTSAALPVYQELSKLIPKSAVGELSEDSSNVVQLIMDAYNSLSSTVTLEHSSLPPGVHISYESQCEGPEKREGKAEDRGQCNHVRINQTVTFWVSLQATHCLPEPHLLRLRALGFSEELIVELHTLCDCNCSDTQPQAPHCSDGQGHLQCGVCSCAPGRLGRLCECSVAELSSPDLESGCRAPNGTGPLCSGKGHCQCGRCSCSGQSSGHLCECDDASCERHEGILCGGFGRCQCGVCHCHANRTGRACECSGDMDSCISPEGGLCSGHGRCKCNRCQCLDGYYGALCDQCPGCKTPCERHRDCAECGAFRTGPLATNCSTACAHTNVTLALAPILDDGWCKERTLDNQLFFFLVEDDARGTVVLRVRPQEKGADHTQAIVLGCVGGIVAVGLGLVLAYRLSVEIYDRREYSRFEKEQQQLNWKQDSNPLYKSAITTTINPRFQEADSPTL
Test: Cell adhesion assay, RPMI8866 cells on MAdCAM coated plates (Example 7)
Type: cell-based
Details: RPMI8866 cells adhering to recombinant human MAdCAM; Table 4 comparative compounds; read-out: CA Assay (Example 7)
Description: Three in vitro assays were used to examine the α4β7 mechanistic process used by cells: 1) ligand:receptor affinity, 2) the avidity of those interactions on a cell's surface, and 3) how those interactions fare under an imposing force. In Example 5, a Fluorescence Polarization (FP) assay is used to measure compound activity through binding competition with the fluorescein-labeled peptide. […] Unattached cells are removed and the remaining adherent cells are quantified. […]
pIC50: −log10 of the molar value.

Recorded results for 3 compounds are shown here.
| compound | studyTarget | pIC50 |
| --- | --- | --- |
| Cc1cccc(C)c1-c1cc([C@H](CC(=O)O)NC(=O)[C@H](CC(C)C)n2ccccc2=O)ccn1 | α4β7 (Homo sapiens, UniProt P13612+P26010) | < 6.30 |
| COc1ccc([C@H](CC(=O)O)NC(=O)C(CC(C)C)n2ccccc2=O)cc1-c1ccccc1C (some centres unmarked) | α4β7 (Homo sapiens, UniProt P13612+P26010) | < 6.30 |
| Cc1cccc(C)c1-c1cncc([C@H](CC(=O)O)NC(=O)C(CC(C)C)n2cc(C(F)(F)F)ccc2=O)c1 (some centres unmarked) | α4β7 (Homo sapiens, UniProt P13612+P26010) | < 7.30 |

Prompt line: Specify measured pIC50 for `CC(C)C[C@@H](C(=O)N[C@@H](CC(=O)O)c1ccc(-c2ccc(F)cc2)cc1)n1cc(CCN(C)C)c(C(F)(F)F)cc1=O` .
Response line: < 6.30

Prompt line: Specify measured pIC50 for `CC(C)C[C@@H](C(=O)N[C@@H](CC(=O)O)c1ccc(-c2ccc(F)cc2)cc1)n1cc(CCN2CC(F)C2)cc(F)c1=O` .
Response line: < 6.30

* * *

Molecular target: α4β7 (Homo sapiens, UniProt P13612+P26010)
Construct: endogenous in cells; host or cells: RPMI 8866 cells
Experiment: Cell adhesion assay, RPMI8866 cells on MAdCAM coated plates (Example 7)
Type: cell-based
Conditions: RPMI8866 cells adhering to recombinant human MAdCAM; Table 3; read-out: CA Assay (Example 7)
pIC50: −log10 of the molar value.
measurementKind: pIC50

Recorded results for 2 molecules are shown here.
| molecule | studyTarget | measurementKind | reportedValue |
| --- | --- | --- | --- |
| Cc1cc(C)c(-c2cc(C)c(F)c([C@H](CC(=O)O)NC(=O)C(CC(C)C)n3cc(CCN(C)C)c(C(F)(F)F)cc3=O)c2)c(C)c1 (single isomer, unassigned) [AC-P2] | α4β7 (Homo sapiens, UniProt P13612+P26010) | pIC50 | > 8.30 |
| Cc1cc(-c2c(C)ccc(F)c2C)cc([C@H](CC(=O)O)NC(=O)C(CC(C)C)n2cc(CCN3CCC3)c(C(F)(F)F)cc2=O)c1F (single isomer, unassigned) [AF-P2] | α4β7 (Homo sapiens, UniProt P13612+P26010) | pIC50 | > 8.30 |

Kindly consider the entry below.
Prompt line: Specify measured pIC50 for Cc1cc(-c2c(C)cccc2C)cc([C@H](CC(=O)O)NC(=O)C(CC(C)C)n2cc(CCN3CC(F)C3)cc(F)c2=O)c1F (single isomer, unassigned) [AV-P2] .
Response line: > 8.30
